targetOrTestSystem: murine METAP1 1-79 (mouse, UniProt Q8BP48)
measurementNotes: intrinsic Trp (W45) fluorescence quenching, 1:1 model
metricName: Kd

| binder | result |
| --- | --- |
| Ac-AEEEYAEDCPELVPIETKNQE-NH2 [Mm ZNG1 N-terminal peptide] | ~100 nM |
| Ac-MEDEDECPELVPIKEKPSGP-NH2 [Dr ZNG1 N-terminal peptide] | ~100 nM |
